The measured values listed here are drawn from patent US8853193B2.

System tested: human Mnk2a (Homo sapiens (Human))
Test summary: Mnk2a in vitro kinase assay (indirect competitive fluorescence polarization)
Particulars: pre-activated GST-Mnk2a 2.5 nM, 20 μM ATP, 30 μM substrate peptide; read-out: MNK2 IC50
Counter-ions that a name gives are not always drawn.
Assay endpoint: pIC50
// pIC50: -log10(molar conc.)

Past entries and their recorded results:
INSERT INTO measurements (compound, assay_endpoint, observed_value) VALUES
  ('COC(=O)c1sc2ncnc(Nc3ccc(F)cc3OC(CN)CNC(C)=O)c2c1C (centres unmarked) [Compound 19-1, trifluoroacetate]', 'pIC50', 5.82),
  ('Cc1c(C(=O)NCCO)sc2ncnc(Nc3ccc(F)cc3OCC3CC3(F)F)c12 (centres unmarked)', 'pIC50', 7.72),
  ('COCC(CF)Oc1cc(F)ccc1Nc1ncnc2sc(C(=O)NCCO)c(C)c12 (centres unmarked) [Compound 32-25]', 'pIC50', 7.89),
  ('Cc1c(C(=O)NCCCO)sc2ncnc(Nc3cccnc3OC(C)C)c12', 'pIC50', 7.35),
  ('Cc1c(C(=O)O)sc2ncnc(Nc3cccnc3OC(C)C(F)(F)F)c12 (centres unmarked)', 'pIC50', 7.82);

Query: Given Cc1c(C(=O)NCCCN(C)C)sc2ncnc(Nc3cccnc3OC(C)C(F)(F)F)c12 (centres unmarked) , respond with its pIC50.
Reply: 7.38

Query: Give the measured pIC50 for Cc1c(C(=O)NC2CCN(C)CC2)sc2ncnc(Nc3ccc(F)cc3OC(C)CC(F)(F)F)c12 (centres unmarked)
Reply: 7.60

Query: Write down pIC50 measured for item Cc1c(C(=O)NCCCN(C)C)sc2ncnc(Nc3cccnc3OCCO)c12 [Compound 29-4, hydrochloride]
Reply: 6.54

* * *

System tested: human Mnk2a (Homo sapiens (Human), UniProt Q9HBH9)
Sequence (Q9HBH9 whole entry): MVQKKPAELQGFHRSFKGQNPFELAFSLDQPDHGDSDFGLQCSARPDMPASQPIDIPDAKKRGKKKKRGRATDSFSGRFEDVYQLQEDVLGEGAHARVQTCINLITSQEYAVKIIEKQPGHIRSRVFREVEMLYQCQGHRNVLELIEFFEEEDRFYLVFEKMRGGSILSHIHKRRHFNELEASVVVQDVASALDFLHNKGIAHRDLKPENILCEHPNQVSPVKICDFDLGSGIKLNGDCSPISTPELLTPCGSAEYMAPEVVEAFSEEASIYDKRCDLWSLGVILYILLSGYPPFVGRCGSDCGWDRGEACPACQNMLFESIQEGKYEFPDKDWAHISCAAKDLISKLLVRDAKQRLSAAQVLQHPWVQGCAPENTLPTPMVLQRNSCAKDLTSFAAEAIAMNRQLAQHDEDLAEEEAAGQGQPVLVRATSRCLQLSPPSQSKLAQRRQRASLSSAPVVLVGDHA
Test summary: Mnk2a in vitro kinase assay (indirect competitive fluorescence polarization)
Particulars: pre-activated GST-Mnk2a 2.5 nM, 20 μM ATP, 30 μM substrate peptide; read-out: MNK2 IC50
Where a name gives a salt, the structure may show the parent alone.
Response field label: string, one of MET (IC50 strictly below 20 nM) or NOT MET.

Examples from the recorded data:
INSERT INTO measurements (compound, label) VALUES
  ('Cc1c(C(=O)NC2CCN(C)CC2)sc2ncnc(Nc3cccnc3OC(C)C(F)(F)F)c12 (stereo not shown)', 'NOT MET'),
  ('Cc1c(C(=O)O)sc2ncnc(Nc3cccnc3OC(C)CCNS(C)(=O)=O)c12 (stereo not shown)', 'NOT MET'),
  ('Cc1c(C(=O)NCCCN(C)C)sc2ncnc(Nc3cccnc3OCC3(CC#N)CC3)c12 [Compound 33, hydrochloride]', 'NOT MET'),
  ('Cc1c(C(=O)O)sc2ncnc(Nc3ccc(F)cc3OC(CF)CF)c12', 'MET'),
  ('Cc1c(C(=O)NCC#CCN(C)C)sc2ncnc(Nc3ccc(F)cc3OC(CF)CF)c12', 'MET'),
  ('Cc1c(C(=O)NCCN(C)C)sc2ncnc(Nc3ccc(F)cc3OC(CF)CF)c12', 'MET'),
  ('CNC(=O)CNC(=O)c1sc2ncnc(Nc3cccnc3OC(C)C)c2c1C', 'NOT MET'),
  ('COCC(C)Oc1ncccc1Nc1ncnc2sc(C(=O)NCCO)c(C)c12 (stereo not shown)', 'NOT MET');

Query: Consider CCNC(=O)C(C)Oc1cc(F)ccc1Nc1ncnc2sc(C(=O)O)c(C)c12 (stereo not shown) . Does its IC50 lie strictly below 20 nM?
Reply: MET

* * *

System tested: UniProt:Q9HBH9
Test summary: Mnk2a in vitro kinase assay (indirect competitive fluorescence polarization)
Particulars: pre-activated GST-Mnk2a 2.5 nM, 20 μM ATP, 30 μM substrate peptide; read-out: MNK2 IC50
Where a name gives a salt, the structure may show the parent alone.
Please use Condition met for IC50 under 20 nM and Condition not met for everything else, ties included.

Worked cases, answers included:
INSERT INTO assay_data (compound, label) VALUES
  ('Cc1c(C(=O)NCCO)sc2ncnc(Nc3ccc(C#N)cc3OC(CF)CF)c12 [Compound 51]', 'Condition met'),
  ('COC(=O)c1sc2ncnc(Nc3ccc(F)cc3OC(C)C(=O)NCCCN)c2c1C (centres unmarked) [Compound 56]', 'Condition not met'),
  ('Cc1c(C(=O)NCCO)sc2ncnc(Nc3ccc(F)cc3OC(C)C(=O)NCCN)c12 (centres unmarked) [Compound 59]', 'Condition not met'),
  ('Cc1c(C(=O)NCCO)sc2ncnc(Nc3cccnc3OC(C)C)c12 [Compound 36-12]', 'Condition not met');

Query: Is it true that IC50 reported for Cc1c(C(=O)NCc2cn(C)cn2)sc2ncnc(Nc3cccnc3OC(C)C)c12 [Compound 36-15] is less than 20 nM?
Reply: Condition not met

Query: Hi there! Is IC50 for Cc1c(C(=O)NCCO)sc2ncnc(Nc3ccc(F)cc3OCCO)c12 [Compound 32-33] below 20 nM, do you know?
Reply: Condition not met

Query: # check: IC50 < 20 nM for Cc1c(C(=O)NCCCN(C)C)sc2ncnc(Nc3cccnc3OCC3CC3(F)F)c12 (centres unmarked) [Compound 34, hydrochloride]
Reply: Condition not met

Query: Identify whether the compound Cc1c(C(=O)NCCN2CCCCC2)sc2ncnc(Nc3cccnc3OC(C)C)c12 [Compound 36-9] records IC50 below 20 nM.
Reply: Condition not met

Query: Input Cc1c(C(=O)NS(C)(=O)=O)sc2ncnc(Nc3ccc(F)cc3OC(CF)CF)c12 [Compound 24] ; condition: IC50 strictly below 20 nM. Does it hold?
Reply: Condition met

Query: I wonder whether Cc1c(C(=O)NC2CCN(C)CC2)sc2ncnc(Nc3ccc(F)cc3OC(C)CF)c12 (centres unmarked) [Compound 32-45] has IC50 below 20 nM. Can you tell?
Reply: Condition met

Query: Please let me know if Cc1c(C(N)=O)sc2ncnc(Nc3cccnc3OC(C)C)c12 [Compound 35] shows IC50 below 20 nM.
Reply: Condition met

Query: IC50 under 20 nM? Item: Cc1c(C(N)=O)sc2ncnc(Nc3cccnc3OC(C)CCN)c12 (centres unmarked) [Compound 16-4]
Reply: Condition not met

Query: Here's an entry: COC(=O)c1sc2ncnc(Nc3ccc(F)cc3OC(C)CCN)c2c1C (centres unmarked) [Compound 12, hydrochloride] . Is its IC50 below 20 nM?
Reply: Condition not met

Query: A record lists COC(=O)c1sc2ncnc(Nc3cccnc3OC(C)CCN)c2c1C (centres unmarked) [Compound 15-2] . Is its IC50 below 20 nM?
Reply: Condition not met

Query: Identify whether the compound Cc1c(C(=O)N[C@@H]2C[C@H]2NC(=O)OC(C)(C)C)sc2ncnc(Nc3ccc(F)cc3OC(CF)CF)c12 [Compound 23-5] records IC50 below 20 nM.
Reply: Condition met

Query: Is the reported IC50 for Cc1c(C(=O)NCCO)sc2ncnc(Nc3ccc(F)cc3OC(CF)CF)c12 [Compound 23-8] strictly below 20 nM?
Reply: Condition met

* * *

System tested: human Mnk2a (Homo sapiens (Human))
Test summary: Mnk2a in vitro kinase assay (indirect competitive fluorescence polarization)
Particulars: pre-activated GST-Mnk2a 2.5 nM, 20 μM ATP, 30 μM substrate peptide; read-out: MNK2 IC50
Assay endpoint: IC50

Below are worked cases with known answers.
INSERT INTO measurements (compound, observed_value) VALUES
  ('Cc1c(C(N)=O)sc2ncnc(Nc3ccc(F)cc3OC(C)CNCCC(F)(F)F)c12 (stereo not drawn)', '64 nM'),
  ('Cc1c(C(=O)NCc2cnco2)sc2ncnc(Nc3cccnc3OC(C)C)c12', '19 nM'),
  ('COC(=O)c1sc2ncnc(Nc3ccc(F)cc3OC(C)CCN(C)C)c2c1C (stereo not drawn)', '1020 nM'),
  ('Cc1c(C(=O)NCCCN(C)C)sc2ncnc(Nc3ccc(F)cc3OCC(C)F)c12 (stereo not drawn)', '35 nM'),
  ('CNC(=O)c1sc2ncnc(Nc3cccnc3OC(C)C(F)(F)F)c2c1C (stereo not drawn)', '12 nM'),
  ('Cc1c(C(=O)NCCO)sc2ncnc(Nc3cccnc3OCC(C)F)c12 (stereo not drawn)', '58 nM'),
  ('Cc1c(C(=O)NCCCN(C)C)sc2ncnc(Nc3ccc(F)cc3OC(C)C#N)c12 (stereo not drawn)', '17 nM'),
  ('Cc1c(C(=O)O)sc2ncnc(Nc3ccc(F)cc3OCCO)c12', '13 nM'),
  ('Cc1c(C(=O)O)sc2ncnc(Nc3ccc(F)cc3OCC3(CC#N)CC3)c12', '19 nM'),
  ('Cc1c(C(=O)NCCCN2CCCC2)sc2ncnc(Nc3ccc(F)cc3OC(C)CC(F)(F)F)c12 (stereo not drawn)', '12 nM');

Next item in the queue.
Query: Please indicate IC50 recorded for COC(=O)c1sc2ncnc(Nc3ccc(F)cc3OC(C)CN(C)C)c2c1C (stereo not drawn)
Reply: 3140 nM

* * *

Property: pIC50; scope: individual compounds
System tested: human Mnk2a (Homo sapiens (Human), UniProt Q9HBH9)
Test summary: Mnk2a in vitro kinase assay (indirect competitive fluorescence polarization)
Type: biochemical
Particulars: pre-activated GST-Mnk2a 2.5 nM, 20 μM ATP, 30 μM substrate peptide; read-out: MNK2 IC50
Where a name gives a salt, the structure may show the parent alone.
Notebook: values listed as pIC50 are -log10 of the concentration (mol/L).

Some solved entries appear below for comparison.
INSERT INTO results (compound, system_tested, observed_value) VALUES
  ('Cc1c(C(N)=O)sc2ncnc(Nc3cccnc3OCC3CC3(F)F)c12 (centres unmarked)', 'human Mnk2a (Homo sapiens (Human), UniProt Q9HBH9)', 7.82),
  ('Cc1c(C(=O)N[C@@H]2C[C@H]2N)sc2ncnc(Nc3ccc(F)cc3OC(CF)CF)c12 (relative stereo) [Compound 25, hydrochloride]', 'human Mnk2a (Homo sapiens (Human), UniProt Q9HBH9)', 7.92),
  ('COCC(CF)Oc1cc(F)ccc1Nc1ncnc2sc(C(=O)NCCO)c(C)c12 (centres unmarked) [Compound 32-23]', 'human Mnk2a (Homo sapiens (Human), UniProt Q9HBH9)', 7.59),
  ('Cc1c(C(=O)NCCCN(C)C)sc2ncnc(Nc3ccc(F)cc3OCC(F)F)c12', 'human Mnk2a (Homo sapiens (Human), UniProt Q9HBH9)', 7.64),
  ('COC(=O)c1sc2ncnc(Nc3ccc(F)cc3OC(C)C(=O)NCCN)c2c1C (centres unmarked)', 'human Mnk2a (Homo sapiens (Human), UniProt Q9HBH9)', 6.92);

Query: Identify measured pIC50 corresponding to COCC(C)Oc1cc(F)ccc1Nc1ncnc2sc(C(=O)NCCO)c(C)c12 (centres unmarked)
Reply: 7.60

Query: State, in one line, measured pIC50 of Cc1c(C(=O)NCCC2CCN(C)C2)sc2ncnc(Nc3ccc(F)cc3OC(C)CF)c12 (centres unmarked)
Reply: 7.92

Query: Assign pIC50 to the following record: Cc1c(C(=O)NCCCN(C)C)sc2ncnc(Nc3ccc(F)cc3OCC3(CC#N)CC3)c12
Reply: 7.11

Query: Supply measured pIC50 of COCC(C)Oc1cc(F)ccc1Nc1ncnc2sc(C(=O)O)c(C)c12 (centres unmarked) in your reply.
Reply: 7.74

Query: Give the measured pIC50 for Cc1c(C(=O)NCCCN(C)C)sc2ncnc(Nc3cccnc3OCC(F)F)c12
Reply: 7.24

Query: Consider the compound Cc1c(C(=O)NCCO)sc2ncnc(Nc3cccnc3OC(C)CCN)c12 (centres unmarked) and give its recorded pIC50.
Reply: 7.15

Query: Consider the compound Cc1c(C(=O)O)sc2ncnc(Nc3ccc(F)cc3OCCC(F)(F)F)c12 and give its recorded pIC50.
Reply: 7.85

Query: Respond only with pIC50 recorded for CCC(CN)Oc1cc(F)ccc1Nc1ncnc2sc(C(=O)OC)c(C)c12 (centres unmarked) [Compound 10-2, hydrochloride]
Reply: 6.64

Query: Respond only with pIC50 recorded for COC(=O)c1sc2ncnc(Nc3ccc(F)cc3OC(C)C(=O)O)c2c1C (centres unmarked)
Reply: 5.27

Query: # return recorded pIC50 for entry Cc1c(C(=O)NCCCN(C)C)sc2ncnc(Nc3cccnc3OC(C)CCNS(C)(=O)=O)c12 (centres unmarked)
Reply: 7.08

Query: Item Cc1c(C(=O)NCC#CCN(C)C)sc2ncnc(Nc3cccnc3OC(C)C)c12 : provide pIC50
Reply: 7.66

Query: Look up pIC50 of Cc1c(C(N)=O)sc2ncnc(Nc3cccnc3OCCO)c12 and report it.
Reply: 7.07
